B1: MIA2 (parent)
chain: DMVSNIELPTRIHEEVYFEPSSSK

variants of: B1; experiment: protein stability index of a GFP-peptide fusion (GPS, HEK-293T) (PSI 1-6); higher = more stable; details: c terminus: a fixed tail appended;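 further: lentivirally expressed fusions sorted by FACS into six bins by GFP to DsRed ratio, PSI derived from sequencing read proportions per bin multiplied by bin number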
Recorded Endpoint: protein stability index
Answer with a bare number; do not write a unit.

Please review the following examples before continuing.
> print(dat)
   sequence.change        recorded.endpoint  value.measured
1             I12S  protein stability index            4.51
2             V16C  protein stability index            4.33
3             R11I  protein stability index            3.58
4             V16K  protein stability index            3.89
5             K24M  protein stability index            3.57

Fill in protein stability index for record L8R
3.64

Check the records and state protein stability index for P9T
3.69

Hello, please tell me recorded protein stability index for this one: N5V
3.5

Look up and state reported protein stability index for P20S
3.52

Provide one value: measured protein stability index of F18C
3.59

Please supply the value of reported protein stability index for the item S21L
3.34

Return protein stability index (reported value) for this variant: L8T
4

Assign protein stability index to the following record: R11W
3.52

Indicate the recorded protein stability index value for this variant: F18T
4.63

State its protein stability index: P9Q
4.08

Values were extracted from the supplement of paper PMC10567573.
